The measured values listed here are drawn from ChEMBL document CHEMBL1806371.

Assay: Selectivity ratio, ratio of IC50 for human Jurkat cells to IC50 for Leishmania infantum MCAN/ES/89/IPZ229/1/89 amastigotes
Format: ADME, cell-based
Conditions: read-out: Ratio IC50
ASSAY ENDPOINT: selectivity ratio

{"columns": ["MOLECULE", "ASSAY ENDPOINT", "VALUE"],
 "data": [
  ["N#C[Se]Cc1ccccc1C#N", "selectivity ratio", 5],
  ["CCCCCCCCCCCCCCCCCCOCC(COP(=O)([O-])OCC[N+](C)(C)C)OC (configuration not stated)", "selectivity ratio", 15],
  ["N#C[Se]CCc1ccc([N+](=O)[O-])cc1", "selectivity ratio", 1],
  ["Cc1ccc(C[Se]C#N)cc1", "selectivity ratio", 4],
  ["N#C[Se]Cc1cccc(C#N)c1", "selectivity ratio", 16],
  ["N#C[Se]Cc1ccc([N+](=O)[O-])cc1", "selectivity ratio", 10],
  ["CCCCCCCCCCCCCCCCOP(=O)([O-])OCC[N+](C)(C)C", "selectivity ratio", 17],
  ["O=[N+]([O-])c1ccc(C[Se][Se]Cc2ccc([N+](=O)[O-])cc2)cc1", "selectivity ratio", 71],
  ["O=[N+]([O-])c1ccccc1C[Se][Se]Cc1ccccc1[N+](=O)[O-]", "selectivity ratio", 9],
  ["N#C[Se]Cc1cccc([N+](=O)[O-])c1", "selectivity ratio", 21],
  ["N#C[Se]c1ccc(N)cc1", "selectivity ratio", 5],
  ["CSc1ccc(C[Se]C#N)cc1", "selectivity ratio", 2]
]}
